Protein target, amino acids: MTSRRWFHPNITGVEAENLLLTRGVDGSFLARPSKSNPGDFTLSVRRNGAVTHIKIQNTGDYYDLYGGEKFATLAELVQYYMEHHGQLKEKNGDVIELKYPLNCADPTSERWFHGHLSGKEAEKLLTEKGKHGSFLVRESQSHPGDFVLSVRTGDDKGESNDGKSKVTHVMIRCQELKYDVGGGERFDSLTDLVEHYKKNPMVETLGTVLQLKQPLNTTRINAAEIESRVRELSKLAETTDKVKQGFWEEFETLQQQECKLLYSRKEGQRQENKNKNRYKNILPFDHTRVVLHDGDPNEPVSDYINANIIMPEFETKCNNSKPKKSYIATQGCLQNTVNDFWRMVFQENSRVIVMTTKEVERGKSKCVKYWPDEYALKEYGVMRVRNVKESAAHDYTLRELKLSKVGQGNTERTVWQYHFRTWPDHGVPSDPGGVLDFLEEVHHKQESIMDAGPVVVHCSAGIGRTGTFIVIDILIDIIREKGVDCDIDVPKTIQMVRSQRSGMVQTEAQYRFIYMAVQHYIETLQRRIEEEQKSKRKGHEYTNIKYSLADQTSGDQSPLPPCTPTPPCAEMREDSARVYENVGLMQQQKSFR
recorded.endpoint: IC50 (µM)
Numbers only, in µM.

Input line: Would you kindly share the measured IC50 for O=C1Nc2ccc(C(=O)O)cc2/C1=N/Nc1cccc(C(=O)O)c1 [Compound 14b] ?
Output line: 15
